Origin of measurements: ChEMBL document CHEMBL3351654

target-entity: UniProtKB Q5KTC7
Sequence (Q5KTC7 whole entry): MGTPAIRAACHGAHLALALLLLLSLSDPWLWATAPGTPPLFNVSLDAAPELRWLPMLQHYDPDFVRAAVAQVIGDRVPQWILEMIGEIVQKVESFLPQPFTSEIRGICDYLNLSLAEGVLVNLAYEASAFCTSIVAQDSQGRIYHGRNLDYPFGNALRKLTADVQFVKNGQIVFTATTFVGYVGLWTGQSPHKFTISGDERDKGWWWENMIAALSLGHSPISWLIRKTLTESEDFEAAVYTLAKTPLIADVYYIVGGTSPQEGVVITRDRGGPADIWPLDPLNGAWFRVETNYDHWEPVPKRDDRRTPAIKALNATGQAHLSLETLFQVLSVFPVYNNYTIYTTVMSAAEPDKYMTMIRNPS
assay-notes: Inhibition of NAAA in Sprague-Dawley rat lung assessed as inhibition of hydrolysis of 10-cis-heptadecenoylethanolamide by UPLC/MS method
condition-set: read-out: IC50
assay-metric: IC50 (µM)
All answers are understood in µM, so give the number only.

See these solved cases before continuing.
C[C@@H]1OC(=O)[C@@H]1NC(=O)OC1(CCCCc2ccccc2)COC1 | 0.52
C[C@@H]1OC(=O)[C@@H]1NC(=O)OC(C)(C)C | 6.35
C[C@@H]1OC(=O)[C@@H]1NC(=O)OCc1ccccc1 | 2.09
C[C@@H]1OC(=O)[C@@H]1NC(=O)OCCCCCl | 0.288
C[C@@H]1OC(=O)[C@@H]1NC(=O)OCc1ccc(OC2CCCCC2)cc1 | 0.023
Cc1ccc(-c2ccc(COC(=O)N[C@H]3C(=O)O[C@H]3C)cc2)cc1 | 0.029

Output measured IC50 for this item: CCCCC1(OC(=O)N[C@H]2C(=O)O[C@H]2C)COC1
3.76

Output measured IC50 for this item: C[C@@H]1OC(=O)[C@@H]1NC(=O)OCc1ccc(C2CCCCC2)cc1
0.007

Output measured IC50 for this item: C[C@@H]1OC(=O)[C@@H]1NC(=O)OCc1ccc(-c2ccsc2)cc1
0.022

Output measured IC50 for this item: CCCCc1ccc(COC(=O)N[C@H]2C(=O)O[C@H]2C)cc1
0.015

Output measured IC50 for this item: C[C@@H]1OC(=O)[C@@H]1NC(=O)OCC#Cc1ccccc1
0.02

* * *

// log10 IC50 lookup, one value per entry
target-entity: N-acylethanolamine-hydrolyzing acid amidase (Rattus norvegicus, UniProt Q5KTC7)
assay-notes: Inhibition of NAAA in Sprague-Dawley rat lung assessed as inhibition of hydrolysis of 10-cis-heptadecenoylethanolamide by UPLC/MS method
condition-set: read-out: pIC50 (converted)
All values: base-10 log of IC50 in µM.

See these solved cases before continuing.
C[C@@H]1OC(=O)[C@@H]1NC(=O)OCCCCCc1ccccc1 | -1.28
C[C@@H]1OC(=O)[C@@H]1NC(=O)OCc1ccc(-c2ccsc2)cc1 | -1.68
C[C@@H]1OC(=O)[C@@H]1NC(=O)OCCOCCc1ccccc1 | -0.83

Give log10 IC50 for CCCCCCCOC(=O)N[C@H]1C(=O)O[C@H]1C tested on N-acylethanolamine-hydrolyzing acid amidase (Rattus norvegicus, UniProt Q5KTC7).
-1.35

Give log10 IC50 for C[C@@H]1OC(=O)[C@@H]1NC(=O)OCCCc1ccccc1 tested on N-acylethanolamine-hydrolyzing acid amidase (Rattus norvegicus, UniProt Q5KTC7).
-1.07

Give log10 IC50 for C[C@@H]1OC(=O)[C@@H]1NC(=O)OC(C)(C)CCCCc1ccccc1 tested on N-acylethanolamine-hydrolyzing acid amidase (Rattus norvegicus, UniProt Q5KTC7).
-0.50

Give log10 IC50 for C[C@@H]1OC(=O)[C@@H]1NC(=O)OCc1ccc(-c2ccccc2)cc1 tested on N-acylethanolamine-hydrolyzing acid amidase (Rattus norvegicus, UniProt Q5KTC7).
-2.14

Give log10 IC50 for C[C@@H]1OC(=O)[C@@H]1NC(=O)OCCCOCc1ccccc1 tested on N-acylethanolamine-hydrolyzing acid amidase (Rattus norvegicus, UniProt Q5KTC7).
-1.29

* * *

target-entity: N-acylethanolamine-hydrolyzing acid amidase (Rattus norvegicus, UniProt Q5KTC7)
Sequence (Q5KTC7 whole entry): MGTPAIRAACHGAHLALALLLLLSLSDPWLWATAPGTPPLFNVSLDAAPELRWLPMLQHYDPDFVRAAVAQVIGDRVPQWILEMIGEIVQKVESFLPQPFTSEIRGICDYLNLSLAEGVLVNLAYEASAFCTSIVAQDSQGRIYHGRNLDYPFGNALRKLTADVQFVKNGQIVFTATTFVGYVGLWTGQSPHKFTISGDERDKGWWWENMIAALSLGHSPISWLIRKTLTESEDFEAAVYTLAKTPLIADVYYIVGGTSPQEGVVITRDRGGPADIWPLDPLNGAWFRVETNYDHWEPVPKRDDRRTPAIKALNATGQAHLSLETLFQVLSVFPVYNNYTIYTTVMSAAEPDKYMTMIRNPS
assay-notes: Inhibition of NAAA in Sprague-Dawley rat lung assessed as inhibition of hydrolysis of 10-cis-heptadecenoylethanolamide by UPLC/MS method
condition-set: read-out: IC50
assay-metric: pIC50
Entry type: numeric. Quantity: pIC50, the -log10 of concentration in molar units.

See these solved cases before continuing.
CCCCCOC(=O)N[C@H]1C(=O)O[C@H]1C | 6.12
C[C@@H]1OC(=O)[C@@H]1NC(=O)OCc1ccc(-c2ccc(C(F)(F)F)cc2)cc1 | 7.44
CCCCCCCC#CCOC(=O)N[C@H]1C(=O)O[C@H]1C | 7.11
C[C@@H]1OC(=O)[C@@H]1NC(=O)OCc1ccc(C(C)(C)C)cc1 | 7.66

# ---- query molecule ----
Output measured pIC50 for this item: C[C@@H]1OC(=O)[C@@H]1NC(=O)OCc1ccc(-c2sccc2Br)cc1
7.55

* * *

target-entity: N-acylethanolamine-hydrolyzing acid amidase (Rattus norvegicus, UniProt Q5KTC7)
assay-notes: Inhibition of NAAA in Sprague-Dawley rat lung assessed as inhibition of hydrolysis of 10-cis-heptadecenoylethanolamide by UPLC/MS method
condition-set: read-out: IC50
assay-metric: pIC50
Entry type: numeric. Quantity: pIC50, the -log10 of concentration in molar units.

C[C@@H]1OC(=O)[C@@H]1NC(=O)OCc1ccc(-c2ccc(F)cc2)cc1 | 7.96
Cc1ccc2sc(COC(=O)N[C@H]3C(=O)O[C@H]3C)cc2c1 | 7.89
C[C@@H]1OC(=O)[C@@H]1NC(=O)OCc1ccc2c(c1)OCO2 | 6.75

Output measured pIC50 for this item: C[C@@H]1OC(=O)[C@@H]1NC(=O)OCCCCCc1ccc(F)cc1
6.62

Output measured pIC50 for this item: C[C@@H]1OC(=O)[C@@H]1NC(=O)OCCCCCCCc1ccccc1
7.41
